melting point overview
measuredQuantity: melting point

> print(dat)
                                   molecule         observedvalue
1        COc1ccc2[nH]c3c(c2c1)CS(=O)(=O)CC3  283 to 286 °C (dec.)
2                 COc1ccc2[nH]c3c(c2c1)CCC3         128 to 130 °C
3  Cc1ccc(C)c2c3c([nH]c12)CCC(O)C3 (centres unmarked)         158 to 161 °C
4             O=C(O)c1ccc2[nH]c3c(c2c1)CCC3         270 to 274 °C
5  Cc1ccc(C)c2c3c([nH]c12)CC(C(=O)O)CC3 (centres unmarked)         228 to 230 °C
6        COc1ccc2[nH]c3c(c2c1)CC1(CC3)OCCO1         168 to 169 °C
7  Cc1ccc2c3c([nH]c2c1C)CCC(O)C3 (centres unmarked)         192 to 195 °C
8               O/N=C1\CCc2[nH]c3ccccc3c2C1  173 to 175 °C (dec.)
